Reference source for all entries: ChEMBL document CHEMBL4732145

- Tested on: NCI-H3122
- ASSAY COMMENT: Antiproliferative activity against human NCI-H3122 cells assessed as reduction in cell viability measured after 72 hrs by MTT assay
- STATED CONDITIONS: NCI-H3122, 72 h
pIC50: −log10 of the molar value.
VALUE TYPE: pIC50

1. Cc1cc(Nc2ncc(Cl)c(Nc3ccccc3S(=O)(=O)C(C)C)n2)c(OC(C)C)cc1C1CCN(CCC(=O)NCCCCCCNCC(=O)Nc2cccc3c2C(=O)N(C2CCC(=O)NC2=O)C3=O)CC1 (stereo not given) :: 5.96
2. Cc1cc(Nc2ncc(Cl)c(Nc3ccccc3S(=O)(=O)C(C)C)n2)c(OC(C)C)cc1C1CCN(CCC(=O)NCCOCCNCCC(=O)Nc2cccc3c2C(=O)N(C2CCC(=O)NC2=O)C3=O)CC1 (stereo not given) :: 5.31
3. Cc1cc(Nc2ncc(Cl)c(Nc3ccccc3S(=O)(=O)C(C)C)n2)c(OC(C)C)cc1C1CCN(CCC(=O)NCCCCNC(=O)COc2cccc3c2C(=O)N(C2CCC(=O)NC2=O)C3=O)CC1 (stereo not given) :: 5.89
4. Cc1cc(Nc2ncc(Cl)c(Nc3ccccc3S(=O)(=O)C(C)C)n2)c(OC(C)C)cc1C1CCN(CCC(=O)NCCOCCOCCNc2cccc3c2C(=O)N(C2CCC(=O)NC2=O)C3=O)CC1 (stereo not given) :: 6.15
5. Cc1cc(Nc2ncc(Cl)c(Nc3ccccc3S(=O)(=O)C(C)C)n2)c(OC(C)C)cc1C1CCN(CCC(=O)NCCCCNCC(=O)Nc2cccc3c2C(=O)N(C2CCC(=O)NC2=O)C3=O)CC1 (stereo not given) :: 5.45

###

Below, each entry is listed with its recorded IC50.
- Test system: NCI-H1299
- ASSAY COMMENT: Antiproliferative activity against human NCI-H1299 cells assessed as reduction in cell viability measured after 72 hrs by MTT assay
- STATED CONDITIONS: NCI-H1299, 72 h
VALUE TYPE: IC50 (µM)

1. Cc1cc(Nc2ncc(Cl)c(Nc3ccccc3S(=O)(=O)C(C)C)n2)c(OC(C)C)cc1C1CCN(CCC(=O)NCCOCCNCC(=O)Nc2cccc3c2C(=O)N(C2CCC(=O)NC2=O)C3=O)CC1 (stereo unspecified) :: 7.23
2. Cc1cc(Nc2ncc(Cl)c(Nc3ccccc3S(=O)(=O)C(C)C)n2)c(OC(C)C)cc1C1CCNCC1 :: 2.92
3. Cc1cc(Nc2ncc(Cl)c(Nc3ccccc3S(=O)(=O)C(C)C)n2)c(OC(C)C)cc1C1CCN(CCC(=O)NCCOCCOCCNCC(=O)Nc2cccc3c2C(=O)N(C2CCC(=O)NC2=O)C3=O)CC1 (stereo unspecified) :: 10.9
4. Cc1cc(Nc2ncc(Cl)c(Nc3ccccc3S(=O)(=O)C(C)C)n2)c(OC(C)C)cc1C1CCN(CCC(=O)NCCOCCOCCNc2cccc3c2C(=O)N(C2CCC(=O)NC2=O)C3=O)CC1 (stereo unspecified) :: 7.59
5. Cc1cc(Nc2ncc(Cl)c(Nc3ccccc3S(=O)(=O)C(C)C)n2)c(OC(C)C)cc1C1CCN(CCC(=O)NCCOCCNCCC(=O)Nc2cccc3c2C(=O)N(C2CCC(=O)NC2=O)C3=O)CC1 (stereo unspecified) :: 12.3

###

Below, each entry is listed with its recorded pIC50.
- System: NCI-H1299
- ASSAY COMMENT: Antiproliferative activity against human NCI-H1299 cells assessed as reduction in cell viability measured after 72 hrs by MTT assay
- STATED CONDITIONS: NCI-H1299, 72 h
pIC50: −log10 of the molar value.
VALUE TYPE: pIC50

1. Cc1cc(Nc2ncc(Cl)c(Nc3ccccc3S(=O)(=O)C(C)C)n2)c(OC(C)C)cc1C1CCN(CCC(=O)NCCCCCCCCNCC(=O)Nc2cccc3c2C(=O)N(C2CCC(=O)NC2=O)C3=O)CC1 (stereo not drawn) :: < 4.70
2. Cc1cc(Nc2ncc(Cl)c(Nc3ccccc3S(=O)(=O)C(C)C)n2)c(OC(C)C)cc1C1CCN(CCC(=O)NCCCCNC(=O)COc2cccc3c2C(=O)N(C2CCC(=O)NC2=O)C3=O)CC1 (stereo not drawn) :: 5.03
3. Cc1cc(Nc2ncc(Cl)c(Nc3ccccc3S(=O)(=O)C(C)C)n2)c(OC(C)C)cc1C1CCN(CCC(=O)NCCCCNCC(=O)Nc2cccc3c2C(=O)N(C2CCC(=O)NC2=O)C3=O)CC1 (stereo not drawn) :: < 4.70
